- targetEntity: recombinant human ALK5 (TGF-βR1) protein (Homo sapiens, UniProt P36897)
- Construct: purchased Life Technologies PR9075A
- Sequence (P36897 34-503): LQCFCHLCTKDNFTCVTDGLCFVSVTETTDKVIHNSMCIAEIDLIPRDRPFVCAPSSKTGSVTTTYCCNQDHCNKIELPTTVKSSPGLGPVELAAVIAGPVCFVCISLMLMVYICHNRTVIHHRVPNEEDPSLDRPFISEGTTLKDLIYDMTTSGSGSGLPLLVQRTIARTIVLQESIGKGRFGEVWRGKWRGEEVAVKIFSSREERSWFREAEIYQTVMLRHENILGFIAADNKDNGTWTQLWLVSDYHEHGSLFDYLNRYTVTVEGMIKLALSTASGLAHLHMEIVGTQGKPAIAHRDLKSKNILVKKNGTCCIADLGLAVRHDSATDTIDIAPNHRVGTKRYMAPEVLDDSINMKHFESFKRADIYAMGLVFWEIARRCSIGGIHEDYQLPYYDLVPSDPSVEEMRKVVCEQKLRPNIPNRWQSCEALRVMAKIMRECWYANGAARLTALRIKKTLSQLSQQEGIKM
- assayMethodText: Biochemical ALK5 (TGF-βR1) assay to measure pKi (LANCE Ultra ULight kinase assay)
- assayContext: apparent pKi from pIC50 by Cheng-Prusoff, read-out: ALK5 pKi (converted)
Recorded measurements of Ki, one per entry

Use the examples below as a reference point.
{"columns": ["compound", "Ki"],
 "data": [
  ["Cc1cccc(-c2[nH]cnc2-c2ccc3ncc(C(=O)OCCN4CC5(CNC5)C4)cc3c2)n1", "0.398 to 3.16 nM"],
  ["Cc1cccc(-c2nc3ccccn3c2-c2ccc3ncc(N4CCCNCC4)cc3c2)n1", "0.0398 to 0.316 nM"],
  ["Cc1cccc(-c2[nH]cnc2-c2ccc3ncc(-c4cnc5c(c4)CCNC5)cc3c2)n1", "0.0398 to 0.316 nM"],
  ["Cc1cccc(-c2n[nH]cc2-c2ccc3nccc(CNCCN4CCOCC4)c3n2)n1", "0.0398 to 0.316 nM"],
  ["Cc1cccc(-c2[nH]cnc2-c2ccc3ncc(-c4cn[nH]c4)cc3c2)n1", "< 0.0316 nM"],
  ["COc1n[nH]c(-c2cccc(C)n2)c1-c1ccc2ncc(-c3cccnc3)cc2n1", "0.0398 to 0.316 nM"]
]}

*Q* Write down the reported Ki of `Cc1nc(-c2n[nH]cc2-c2ccc3ncc(-c4cnn(C[C@H]5CC[C@H](N)CC5)c4)cc3n2)ccc1F` , test system: recombinant human ALK5 (TGF-βR1) protein (Homo sapiens, UniProt P36897).
*A* < 0.0316 nM

*Q* Cool, now `Cc1cccc(-c2[nH]cnc2-c2ccc3ncc(NCCN4CCN(C(C)C)CC4)cc3c2)n1`
*A* 0.0398 to 0.316 nM

*Q* Cool, now `CNCc1cncc(-c2cnc3ccc(-c4nc[nH]c4-c4cccc(C)n4)cc3c2)c1`
*A* 0.0398 to 0.316 nM

* * *

Recorded measurements of Ki, one per entry
- targetEntity: recombinant human ALK5 (TGF-βR1) protein (Homo sapiens)
- Construct: purchased Life Technologies PR9075A
- assayMethodText: Biochemical ALK5 (TGF-βR1) assay to measure pKi (LANCE Ultra ULight kinase assay)
- assayContext: apparent pKi from pIC50 by Cheng-Prusoff, read-out: ALK5 pKi (converted)

{"columns": ["compound", "targetEntity", "dataValue"],
 "data": [
  ["Cc1cccc(-c2[nH]ncc2-c2ccc3ncc(C(=O)OCC4CNC4)cc3n2)n1", "recombinant human ALK5 (TGF-βR1) protein (Homo sapiens)", "0.0398 to 0.316 nM"],
  ["CNC1CC2CCC(C1)N2c1cnc2ccc(-c3c[nH]nc3-c3cccc(C)n3)nc2c1 (centres unmarked)", "recombinant human ALK5 (TGF-βR1) protein (Homo sapiens)", "3.98 to 31.6 nM"],
  ["Cc1cccc(-c2nc3ccccn3c2-c2ccc3ncc(N4CCNCC4)cc3n2)n1", "recombinant human ALK5 (TGF-βR1) protein (Homo sapiens)", "0.0398 to 0.316 nM"],
  ["Cc1cccc(-c2n[nH]cc2-c2ccc3ncc(-c4ccn(C)n4)cc3n2)n1", "recombinant human ALK5 (TGF-βR1) protein (Homo sapiens)", "< 0.0316 nM"]
]}

*Q* What value of Ki has been recorded for this entry: `Cc1cccc(-c2[nH]ncc2-c2ccc3ncc(C(=O)NC4CCNCC4)cc3n2)n1`
*A* 0.0398 to 0.316 nM

*Q* Cool, now `Cc1cccc(-c2n[nH]cc2-c2ccc3ncc(-c4cnc(O)nc4)cc3n2)n1`
*A* 0.0398 to 0.316 nM

*Q* Cool, now `Cc1cccc(-c2[nH]cnc2-c2ccc3ncc(NCCN4CCCC4(C)C)cc3c2)n1`
*A* < 0.0316 nM

*Q* Cool, now `Cc1cccc(-c2[nH]cnc2-c2ccc3ncc(C(=O)O[C@H]4CC[C@](C)(N)CC4)cc3c2)n1`
*A* 0.0398 to 0.316 nM
